A collection of molecules and their measured Emax
- STUDY_TARGET: sGC α1/β1 heterodimer (Homo sapiens, UniProt Q02108+Q02153)
- Construct: expressed in transfected cells
- EXPERIMENT: Cell-Based sGC Functional Assay (CASA Assay)
- SETTINGS: CHO-K1/sGC cells; cGMP as percentage of maximum cGMP production of Compound A (=100% activation); read-out: % ACT (percent activation)
MEASUREMENT_NAME: Emax (%)

Cn1ncc2c(-c3nc(N)c4c(n3)NC(=O)C4(C(=O)NC3CC3)C3CC3)nc(CCC(F)(F)C(F)(F)F)nc21 (single isomer, unassigned) [Example 33]    112
CC1(c2ccc(F)cc2)C(=O)Nc2nc(-c3nc(CCC(F)(F)C(F)(F)F)nc4[nH]ncc34)nc(N)c21 (single isomer, unassigned) [Example 8]    109
Cn1ncc2c(-c3nc(N)c4c(n3)NC(=O)C4(C)NC(=O)CC3CC3)nc(CCC(F)(F)C(F)(F)F)nc21 (stereo not drawn) [Example 52]    92

* * *

This section presents molecules with their documented Emax values.
- STUDY_TARGET: sGC α1/β1 heterodimer (Homo sapiens, UniProt Q02108+Q02153)
- Construct: expressed in transfected cells
- Sequence (Q02108 1-690): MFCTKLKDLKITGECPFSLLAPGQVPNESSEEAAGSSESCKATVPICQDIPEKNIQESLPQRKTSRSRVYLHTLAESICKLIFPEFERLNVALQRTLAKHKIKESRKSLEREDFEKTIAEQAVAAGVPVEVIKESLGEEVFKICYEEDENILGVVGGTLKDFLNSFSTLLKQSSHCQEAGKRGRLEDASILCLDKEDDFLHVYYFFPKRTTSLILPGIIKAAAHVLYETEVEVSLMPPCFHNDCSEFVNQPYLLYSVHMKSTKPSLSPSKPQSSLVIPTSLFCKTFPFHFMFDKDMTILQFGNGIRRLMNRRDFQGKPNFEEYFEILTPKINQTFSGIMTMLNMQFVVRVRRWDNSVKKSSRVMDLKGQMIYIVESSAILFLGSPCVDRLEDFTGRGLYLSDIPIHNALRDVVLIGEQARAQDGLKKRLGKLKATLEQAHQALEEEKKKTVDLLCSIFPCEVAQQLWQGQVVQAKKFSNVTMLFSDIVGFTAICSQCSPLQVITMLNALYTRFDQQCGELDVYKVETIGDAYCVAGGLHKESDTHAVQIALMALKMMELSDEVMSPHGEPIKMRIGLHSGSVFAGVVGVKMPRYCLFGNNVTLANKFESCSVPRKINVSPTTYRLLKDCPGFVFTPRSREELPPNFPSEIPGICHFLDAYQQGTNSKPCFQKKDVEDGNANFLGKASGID
- Sequence (Q02153 1-619): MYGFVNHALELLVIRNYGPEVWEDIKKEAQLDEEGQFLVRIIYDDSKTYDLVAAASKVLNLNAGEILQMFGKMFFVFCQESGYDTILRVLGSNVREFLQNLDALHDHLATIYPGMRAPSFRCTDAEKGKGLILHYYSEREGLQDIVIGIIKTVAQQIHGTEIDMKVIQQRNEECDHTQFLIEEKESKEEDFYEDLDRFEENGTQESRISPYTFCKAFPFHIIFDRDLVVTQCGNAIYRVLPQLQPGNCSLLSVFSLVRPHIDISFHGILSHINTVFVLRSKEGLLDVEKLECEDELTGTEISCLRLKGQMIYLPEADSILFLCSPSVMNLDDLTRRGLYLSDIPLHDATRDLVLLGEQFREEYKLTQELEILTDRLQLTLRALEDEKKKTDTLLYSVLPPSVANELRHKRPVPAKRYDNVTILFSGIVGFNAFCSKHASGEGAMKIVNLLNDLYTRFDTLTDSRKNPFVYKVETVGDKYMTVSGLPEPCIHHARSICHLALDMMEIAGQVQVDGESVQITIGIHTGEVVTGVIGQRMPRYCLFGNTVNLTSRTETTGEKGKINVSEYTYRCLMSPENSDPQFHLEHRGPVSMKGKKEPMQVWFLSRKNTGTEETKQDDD
- EXPERIMENT: Cell-Based sGC Functional Assay (CASA Assay)
- SETTINGS: CHO-K1/sGC cells; cGMP as percentage of maximum cGMP production of Compound A (=100% activation); read-out: % ACT (percent activation)
MEASUREMENT_NAME: Emax (%)

Cn1ncc2c(-c3nc(N)c4c(n3)NC(=O)C4(C)c3ccccc3)nc(CCCC(F)(F)F)nc21 (single isomer, unassigned)    132
COC1(C)C(=O)Nc2nc(-c3nc(CCC(F)(F)C(F)(F)F)nc4c3cnn4C)nc(N)c21 (single isomer, unassigned)    104
[2H]C([2H])([2H])n1ncc2c(-c3nc(N)c4c(n3)NC(=O)C4(C)c3ccc(O)cc3)nc(CCC(F)(F)C(F)(F)F)nc21 (single isomer, unassigned)    110
Cn1ccc2c(-c3nc(N)c4c(n3)NC(=O)C4(C)c3ccc(F)cc3)nc(CCC(F)(F)C(F)(F)F)nc21 (single isomer, unassigned)    91
[2H]C([2H])([2H])n1ncc2c(-c3nc(N)c4c(n3)NC(=O)C4(C)C)nc(CCC(F)(F)C(F)(F)F)nc21    75
[2H]C([2H])([2H])n1ncc2c(-c3nc(N)c4c(n3)NC(=O)C4(C(=O)Nc3ccccn3)C3CC3)nc(CCC(F)(F)C(F)(F)F)nc21 (single isomer, unassigned)    100
Cn1ncc2c(-c3nc(N)c4c(n3)NC(=O)C4(C)NCC3CC3)nc(CCC(F)(F)C(F)(F)F)nc21 (stereo not drawn)    118
[2H]C([2H])([2H])n1ncc2c(-c3nc(N)c4c(n3)NC(=O)C4(C)c3cccc(OC)c3)nc(CCC(F)(F)C(F)(F)F)nc21 (single isomer, unassigned)    110
Cn1ncc2c(-c3nc(N)c4c(n3)NC(=O)C4(C)C(=O)NC3CC3)nc(CCC(F)(F)C(F)(F)F)nc21 (single isomer, unassigned)    132
Cn1ncc2c(-c3nc(N)c4c(n3)NC(=O)C4(C)c3ccc(F)cc3)nc(CC3CC(F)(F)C3)nc21 (single isomer, unassigned)    122
CCn1ncc2c(-c3nc(N)c4c(n3)NC(=O)C4(C(=O)NC3CC3)C3CC3)nc(CCC(F)(F)C(F)(F)F)nc21 (single isomer, unassigned)    112
[2H]C([2H])([2H])n1ncc2c(-c3nc(N)c4c(n3)NC(=O)C4(C(=O)NC3CC3)C3CC3)nc(CCC(F)(F)C(F)(F)F)nc21 (single isomer, unassigned)    112
C#CC1(C)C(=O)Nc2nc(-c3nc(CCC(F)(F)C(F)(F)F)nc4c3cnn4C)nc(N)c21 (single isomer, unassigned)    106
[2H]C([2H])([2H])n1nnc2c(-c3nc(N)c4c(n3)NC(=O)C4(C)c3ccc(OC)cc3)nc(CCC(F)(F)C(F)(F)F)nc21 (single isomer, unassigned)    67
[2H]C([2H])([2H])n1ncc2c(-c3nc(N)c4c(n3)NC(=O)C4(C)C(=O)NC3CC3)nc(CCC(F)(F)C(F)(F)F)nc21 (single isomer, unassigned)    131
[2H]C([2H])([2H])n1nnc2c(-c3nc(N)c4c(n3)NC(=O)C4(c3ccc(F)cc3)C3CC3)nc(CCC(F)(F)C(F)(F)F)nc21 (single isomer, unassigned)    98
[2H]C([2H])([2H])n1ncc2c(-c3nc(N)c4c(n3)NC(=O)C4(C)c3ccccc3)nc(CCC(F)(F)C(F)(F)F)nc21 (single isomer, unassigned)    101
[2H]C([2H])([2H])n1nnc2c(-c3nc(N)c4c(n3)NC(=O)C4(C)c3ccc(F)c(OC)c3)nc(CCC(F)(F)C(F)(F)F)nc21 (single isomer, unassigned)    66
